B1: CHCHD6 (parent)
chain: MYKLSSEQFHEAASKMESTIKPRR

Variants of: B1
Assay: protein stability index of a GFP-peptide fusion (GPS, HEK-293T) (PSI 1-6); higher = more stable;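 further: lentivirally expressed fusions sorted by FACS into six bins by GFP to DsRed ratio, PSI derived from sequencing read proportions per bin multiplied by bin number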
Conditions: c terminus: a fixed tail appended
Measured protein stability index values are reported for all entries that follow.
observed property: protein stability index

* M16T | 4.34
* E11H | 3.22
* S14G | 3.87
* A13M | 2.59
* H10L | 3.69
* M1V | 4.03

Sourced from the supplement of paper PMC10567573
